Assay: Acute toxicity (LD50) on intraperitoneal injection into mice
Conditions: mouse, in vivo, ip
measurement.label: LD50

State the recorded LD50 for this entry: "CC(C)OC(=O)CNC(=O)[C@H](CS)NC(=O)CC[C@H](N)C(=O)O"
~5300 mg/kg
